Provenance of the data: paper PMC5974779

Reported values: Chemically defined spheroids (this study) 20x for primary human hepatocytes (PHH) 3D spheroids, one per item.

Recorded Chemically defined spheroids (this study) 20x, per entry:
CN(C)CCCN1c2ccccc2CCc2ccc(Cl)cc21 [Clomipramine] = Positive
C1CCC(C(CC2CCCCN2)C2CCCCC2)CC1 (stereo not drawn) [Perhexiline] = Positive
Cc1cn([C@H]2C=C[C@@H](CO)O2)c(=O)[nH]c1=O [Stavudine] = Negative
Nc1ccc(/N=N/c2ccccc2)c(N)n1 [Phenazopyridine] = Negative
NCCCC[C@H](N[C@@H](CCc1ccccc1)C(=O)O)C(=O)N1CCC[C@H]1C(=O)O [Lisinopril] = Positive
COC(=O)C1=C(C)NC(C)=C(C(=O)OCC(C)C)C1c1ccccc1[N+](=O)[O-] (stereo not drawn) [Nisoldipine] = Negative
COCCOC(=O)C1=C(C)NC(C)=C(C(=O)OC(C)C)C1c1cccc([N+](=O)[O-])c1 (stereo not drawn) [Nimodipine] = Positive
C[C@H](CCC(=O)O)[C@H]1CC[C@H]2[C@@H]3[C@H](O)C[C@@H]4C[C@H](O)CC[C@]4(C)[C@H]3CC[C@]12C [Chenodiol] = Positive

Query: What reported Chemically defined spheroids (this study) 20x corresponds to Clc1ccc2c(c1)C(N1CCNCC1)=Nc1ccccc1O2 [Amoxapine] on primary human hepatocytes (PHH) 3D spheroids?
Response: Negative

Query: Kindly state the measured Chemically defined spheroids (this study) 20x obtained for O=c1ccc2ccccc2o1 [Coumarin] with primary human hepatocytes (PHH) 3D spheroids.
Response: Positive

Query: Please tell me: Chemically defined spheroids (this study) 20x of CS(=O)(=O)Nc1ccc([N+](=O)[O-])cc1Oc1ccccc1 [Nimesulide] , system primary human hepatocytes (PHH) 3D spheroids?
Response: Positive

---

# Tested on: primary human hepatocytes (PHH) 3D spheroids
Structures can show the parent of a compound that is named as a salt.
reported metric: Chemically defined spheroids (this study) 20x

A selection of reference data follows.
O=C1CN(/N=C/c2ccc(-c3ccc([N+](=O)[O-])cc3)o2)C(O)=N1 [Dantrolene] = Positive
COc1cc(NC(C)CCCN)c2ncccc2c1 (stereo not drawn) [Primaquine] = Negative
CN(C)CCC(c1ccc(Br)cc1)c1ccccn1 (stereo not drawn) [Brompheniramine Maleate] = Negative
CC(C)COCC(CN(Cc1ccccc1)c1ccccc1)N1CCCC1 (stereo not drawn) [Bepridil] = Positive
C=C[C@H]1C[N@@]2CC[C@H]1C[C@H]2[C@H](O)c1ccnc2ccc(OC)cc12 [Quinine] = Positive
CNC(=O)Oc1ccc2c(c1)[C@]1(C)CCN(C)[C@@H]1N2C [Physostigmine] = Negative

Query: Form entry - test system: primary human hepatocytes (PHH) 3D spheroids; read-out: Chemically defined spheroids (this study) 20x; molecule: CNCCC=C1c2ccccc2CCc2ccccc21 [Nortriptyline]
Response: Positive

Query: I'm curious: which Chemically defined spheroids (this study) 20x was measured for Cc1c(C)c2c(c(C)c1O)CCC(C)(COc1ccc(CC3SC(=O)NC3=O)cc1)O2 (stereo not drawn) [Troglitazone] tested on primary human hepatocytes (PHH) 3D spheroids?
Response: Positive

Query: Look up Chemically defined spheroids (this study) 20x with primary human hepatocytes (PHH) 3D spheroids for this molecule: Cn1cnc([N+](=O)[O-])c1Sc1ncnc2nc[nH]c12 [Azathioprine]
Response: Positive

---

# Tested on: rhesus monkey primary hepatocyte 3D spheroids
# method: Animal hepatocyte spheroid hepatotoxicity (ATP viability, 14 days), rhesus monkey
# Assay type: cell-based
# condition notes: rhesus monkey hepatocyte spheroids, 1×, 5×, 20× human cmax, 14 days
reported metric: hepatotoxicity evaluation in spheroids

Cc1c(C)c2c(c(C)c1O)CCC(C)(COc1ccc(CC3SC(=O)NC3=O)cc1)O2 (centres unmarked) = flagged as hepatotoxic
C1CCC(C(CC2CCCCN2)C2CCCCC2)CC1 (centres unmarked) = flagged as hepatotoxic
CCc1nn(CCCN2CCN(c3cccc(Cl)c3)CC2)c(=O)n1CCOc1ccccc1 = flagged as hepatotoxic
CC(C)C(=O)Nc1ccc([N+](=O)[O-])c(C(F)(F)F)c1 [Flutamide] = flagged as hepatotoxic
